Sourced from patent US20240350421A1

test: Cell proliferation (trypan blue) assay in HeLa cells; format: cell-based; details: human, read-out: reduction in cell viability
MEASURED_ATTRIBUTE: cytotoxicity at 24 h (%)
Numeric only. Scale: %

Data request: Give the value of cytotoxicity at 24 h reported for the following: CC(=O)O[C@H]1C(=O)[C@@]2(C)[C@H]([C@H](OC(=O)c3ccccc3)[C@]3(O)C[C@H](OC(=O)[C@H](O)[C@@H](NC(=O)c4ccccc4)c4ccccc4)C(C)=C1C3(C)C)[C@]1(OC(C)=O)CO[C@@H]1C[C@@H]2O [PTX suspension, paclitaxel]
Data returned: 17
